Catalogue of molecules with associated solubility
METHOD: Aqueous solubility of the compound
Type: physicochemical
STUDY_CONDITIONS: buffer

Record excerpt, results attached:
1. O=C(NCc1cccnc1N1CCOCC1)c1cncc(-c2ccc(OC(F)(F)F)cc2)n1 :: > 50 µg/mL
2. Cc1cc(C)cc(NC(=O)c2cncc(-c3ccc(C#N)cc3)n2)c1 :: 0.03 µg/mL
3. CCOc1ccc(-c2cncc(C(=O)Nc3cc(C)cc(C)c3)n2)cc1 :: < 0.1 µg/mL
4. Cc1cccc(NC(=O)c2cncc(-c3ccc(OC(F)(F)F)cc3)n2)c1 :: < 0.1 µg/mL
5. CC(C)Oc1cccc(NC(=O)c2cncc(-c3ccc(C#N)cc3)n2)c1 :: 0.08 µg/mL

Field solubility (entry `COc1cc(NC(=O)c2cncc(-c3ccc(Cl)cc3)n2)cc(OC)c1` ) reads < 0.1 µg/mL

Field solubility (entry `CCOc1ccc(-c2cncc(C(=O)Nc3cccc(C)c3)n2)cc1` ) reads < 0.1 µg/mL

* * *

METHOD: Half life in rat at 3 mg/kg, iv
Assay type: ADME, organism-based
Parameters: dose 3 mg/kg, route intravenous
STUDY_CONDITIONS: in vivo
ASSAY_METRIC: half-life (h)

1) O=C(NCc1cccnc1N1CCOCC1)c1cncc(-c2ccc(OC(F)(F)F)cc2)n1 :: 1.9
2) Cc1cc(C)cc(NC(=O)c2cncc(-c3ccc(C#N)cc3)n2)c1 :: 1.6

* * *

TEST_TARGET: Sodium channel protein type 10 subunit alpha (Homo sapiens)
Sequence (Q9Y5Y9 whole entry): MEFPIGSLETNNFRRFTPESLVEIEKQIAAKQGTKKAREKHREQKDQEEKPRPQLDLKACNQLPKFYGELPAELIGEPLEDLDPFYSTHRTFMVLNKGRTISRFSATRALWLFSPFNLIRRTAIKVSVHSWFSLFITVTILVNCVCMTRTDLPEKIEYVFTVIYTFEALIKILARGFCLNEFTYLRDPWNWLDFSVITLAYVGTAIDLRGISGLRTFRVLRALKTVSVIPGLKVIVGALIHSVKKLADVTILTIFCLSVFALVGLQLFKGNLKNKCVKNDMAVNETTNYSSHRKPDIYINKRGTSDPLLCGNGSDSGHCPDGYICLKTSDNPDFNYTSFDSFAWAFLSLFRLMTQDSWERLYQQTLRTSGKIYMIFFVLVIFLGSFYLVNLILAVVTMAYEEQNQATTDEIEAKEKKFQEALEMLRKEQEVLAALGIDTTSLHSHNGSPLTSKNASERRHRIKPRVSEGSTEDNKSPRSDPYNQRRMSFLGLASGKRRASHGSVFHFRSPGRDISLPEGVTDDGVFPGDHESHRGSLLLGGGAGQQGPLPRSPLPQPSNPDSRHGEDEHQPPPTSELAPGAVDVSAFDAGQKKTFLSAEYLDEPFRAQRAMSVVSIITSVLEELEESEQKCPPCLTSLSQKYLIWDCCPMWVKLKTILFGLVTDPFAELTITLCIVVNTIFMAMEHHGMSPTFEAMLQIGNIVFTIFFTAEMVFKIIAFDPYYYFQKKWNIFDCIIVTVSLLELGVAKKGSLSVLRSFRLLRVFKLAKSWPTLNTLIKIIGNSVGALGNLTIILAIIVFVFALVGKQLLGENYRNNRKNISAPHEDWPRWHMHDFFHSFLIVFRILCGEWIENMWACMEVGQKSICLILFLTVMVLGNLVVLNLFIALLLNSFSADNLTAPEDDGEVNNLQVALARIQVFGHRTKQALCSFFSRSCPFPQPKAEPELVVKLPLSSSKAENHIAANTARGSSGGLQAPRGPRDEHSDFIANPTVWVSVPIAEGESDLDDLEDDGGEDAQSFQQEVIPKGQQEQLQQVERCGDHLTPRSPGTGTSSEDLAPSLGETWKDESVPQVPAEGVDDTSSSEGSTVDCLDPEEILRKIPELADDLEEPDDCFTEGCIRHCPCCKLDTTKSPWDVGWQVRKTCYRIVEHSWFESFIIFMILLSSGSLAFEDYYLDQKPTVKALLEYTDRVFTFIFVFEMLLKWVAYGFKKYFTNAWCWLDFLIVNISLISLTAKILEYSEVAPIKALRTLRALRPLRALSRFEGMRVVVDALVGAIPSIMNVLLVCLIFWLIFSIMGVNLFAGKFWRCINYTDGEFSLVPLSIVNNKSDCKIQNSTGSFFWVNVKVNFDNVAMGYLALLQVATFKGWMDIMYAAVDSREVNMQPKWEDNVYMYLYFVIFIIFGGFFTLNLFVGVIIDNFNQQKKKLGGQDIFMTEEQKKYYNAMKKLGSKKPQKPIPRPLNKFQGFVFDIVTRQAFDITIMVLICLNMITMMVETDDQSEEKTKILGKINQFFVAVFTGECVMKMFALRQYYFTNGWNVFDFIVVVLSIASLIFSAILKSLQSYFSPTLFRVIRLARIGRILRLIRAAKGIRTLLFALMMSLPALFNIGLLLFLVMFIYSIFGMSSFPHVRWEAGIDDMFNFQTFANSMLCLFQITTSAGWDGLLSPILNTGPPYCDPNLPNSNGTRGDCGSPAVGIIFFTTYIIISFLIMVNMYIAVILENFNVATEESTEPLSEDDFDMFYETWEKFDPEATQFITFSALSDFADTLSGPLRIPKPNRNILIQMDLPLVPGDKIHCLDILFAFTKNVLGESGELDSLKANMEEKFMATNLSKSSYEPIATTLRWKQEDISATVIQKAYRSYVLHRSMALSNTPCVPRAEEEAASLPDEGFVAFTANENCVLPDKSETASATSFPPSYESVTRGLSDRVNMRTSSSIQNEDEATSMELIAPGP
METHOD: Inhibition of human recombinant NaV1.8 expressed in HEK293 cells by conventional voltage clamp electrophysiology assay
ASSAY_METRIC: IC50 (nM)

Record excerpt, results attached:
1) Cc1cccc(NC(=O)c2cncc(-c3ccc(Cl)cc3)n2)c1 :: 6
2) Cc1ccccc1CNC(=O)c1cncc(-c2ccc(C#N)cc2)n1 :: 150
3) CCOc1ccc(-c2cncc(C(=O)Nc3cccc(C)c3)n2)cc1 :: 1
4) Cc1cc(C)cc(NC(=O)c2cncc(-c3ccc(Cl)cc3)n2)c1 :: 3
5) O=C(NCc1cccnc1N1CCOCC1)c1cncc(-c2ccc(Cl)cc2)n1 :: 37
6) CCOc1ccc(-c2cncc(C(=O)NCc3ccccc3C)n2)cc1 :: 2
7) O=C(NCc1cccnc1N1CCOCC1)c1cncc(-c2ccc(OC(F)(F)F)cc2)n1 :: 19
8) CCOc1ccc(-c2cncc(C(=O)Nc3cc(C)cc(C)c3)n2)cc1 :: 2

I. O=C(NCCc1ccc(Cl)cc1)c1cncc(-c2ccc(Cl)cc2)n1
II. COc1cc(NC(=O)c2cncc(-c3ccc(Cl)cc3)n2)cc(OC)c1
Query string: Consider entries I and II . Which has the numerically lower IC50? The response must carry the label of the picked entry.
Result string: II

* * *

TEST_TARGET: Sodium channel protein type 10 subunit alpha (Rattus norvegicus)
Sequence (Q62968 whole entry): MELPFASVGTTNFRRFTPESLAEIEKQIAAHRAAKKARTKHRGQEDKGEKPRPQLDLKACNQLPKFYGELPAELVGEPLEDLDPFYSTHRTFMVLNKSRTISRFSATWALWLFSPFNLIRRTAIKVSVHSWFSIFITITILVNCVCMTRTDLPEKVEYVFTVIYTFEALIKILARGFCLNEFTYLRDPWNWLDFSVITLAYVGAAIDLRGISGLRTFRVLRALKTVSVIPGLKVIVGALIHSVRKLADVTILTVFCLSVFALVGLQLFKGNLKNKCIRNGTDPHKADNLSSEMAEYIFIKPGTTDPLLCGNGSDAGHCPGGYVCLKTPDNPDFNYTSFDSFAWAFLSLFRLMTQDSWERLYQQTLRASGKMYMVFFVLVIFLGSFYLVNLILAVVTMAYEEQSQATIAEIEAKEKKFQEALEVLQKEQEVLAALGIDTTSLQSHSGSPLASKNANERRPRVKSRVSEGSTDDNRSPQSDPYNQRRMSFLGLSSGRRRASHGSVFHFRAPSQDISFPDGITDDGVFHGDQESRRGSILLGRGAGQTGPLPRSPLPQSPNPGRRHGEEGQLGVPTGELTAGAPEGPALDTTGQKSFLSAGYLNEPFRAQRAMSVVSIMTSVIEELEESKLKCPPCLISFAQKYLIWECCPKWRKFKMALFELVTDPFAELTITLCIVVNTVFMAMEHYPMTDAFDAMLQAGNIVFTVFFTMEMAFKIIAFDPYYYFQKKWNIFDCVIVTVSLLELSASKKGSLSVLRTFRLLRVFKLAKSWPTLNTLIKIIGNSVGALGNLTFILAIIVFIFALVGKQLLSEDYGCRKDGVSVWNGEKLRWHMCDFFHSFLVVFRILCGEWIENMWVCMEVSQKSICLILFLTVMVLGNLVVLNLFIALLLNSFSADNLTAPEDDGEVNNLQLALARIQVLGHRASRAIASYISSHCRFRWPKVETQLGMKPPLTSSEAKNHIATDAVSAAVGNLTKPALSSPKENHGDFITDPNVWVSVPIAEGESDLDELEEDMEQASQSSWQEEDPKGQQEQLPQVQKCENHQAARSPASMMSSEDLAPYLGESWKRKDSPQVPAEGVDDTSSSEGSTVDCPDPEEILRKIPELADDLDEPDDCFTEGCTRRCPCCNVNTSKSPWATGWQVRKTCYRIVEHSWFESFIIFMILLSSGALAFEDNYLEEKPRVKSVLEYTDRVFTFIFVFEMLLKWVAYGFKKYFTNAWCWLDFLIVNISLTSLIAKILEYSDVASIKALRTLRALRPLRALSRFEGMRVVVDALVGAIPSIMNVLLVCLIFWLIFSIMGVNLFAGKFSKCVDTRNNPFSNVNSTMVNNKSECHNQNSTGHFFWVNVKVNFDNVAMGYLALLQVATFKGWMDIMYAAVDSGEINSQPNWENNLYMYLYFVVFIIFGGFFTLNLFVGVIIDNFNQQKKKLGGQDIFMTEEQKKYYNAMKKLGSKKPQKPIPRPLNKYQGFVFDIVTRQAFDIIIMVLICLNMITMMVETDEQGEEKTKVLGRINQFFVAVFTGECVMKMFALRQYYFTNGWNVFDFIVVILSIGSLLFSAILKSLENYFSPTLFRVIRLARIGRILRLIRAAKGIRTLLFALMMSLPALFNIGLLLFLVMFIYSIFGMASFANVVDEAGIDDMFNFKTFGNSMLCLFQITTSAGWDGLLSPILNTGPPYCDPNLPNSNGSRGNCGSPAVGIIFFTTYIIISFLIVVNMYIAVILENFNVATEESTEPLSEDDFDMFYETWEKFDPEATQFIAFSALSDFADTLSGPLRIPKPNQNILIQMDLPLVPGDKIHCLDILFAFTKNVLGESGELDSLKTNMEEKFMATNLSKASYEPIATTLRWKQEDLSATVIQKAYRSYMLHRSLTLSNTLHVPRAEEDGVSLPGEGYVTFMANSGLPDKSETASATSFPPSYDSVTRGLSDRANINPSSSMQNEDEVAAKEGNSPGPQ
METHOD: Inhibition of tetrodotoxin-resistant NaV1.8 in rat dorsal root ganglion neurons at holding potential -100 mV by whole-cell patch clamp electrophysiology assay
Format: tissue-based
ASSAY_METRIC: IC50 (µM)
Response body: numeric value in µM, unit text excluded.

Field IC50 (entry `Cc1ccccc1CNC(=O)c1cncc(-c2ccc(OC(F)(F)F)cc2)n1` ) reads 0.17

Field IC50 (entry `CC(C)Oc1cccc(NC(=O)c2cncc(-c3ccc(C#N)cc3)n2)c1` ) reads 0.13

Field IC50 (entry `CCOc1ccc(-c2cncc(C(=O)NCc3ccccc3C)n2)cc1` ) reads 0.019

Field IC50 (entry `Cc1cccc(NC(=O)c2cncc(-c3ccc(OC(F)(F)F)cc3)n2)c1` ) reads 0.016

Field IC50 (entry `O=C(NCc1cccnc1N1CCCC1)c1cncc(-c2ccc(Cl)cc2)n1` ) reads 0.55

Field IC50 (entry `Cc1cc(C)cc(NC(=O)c2cncc(-c3ccc(C#N)cc3)n2)c1` ) reads 0.084

Field IC50 (entry `O=C(NCCc1ccc(Cl)cc1)c1cncc(-c2ccc(Cl)cc2)n1` ) reads 0.36

Measured values drawn from ChEMBL document CHEMBL1275385 for this set.
